Cited source for all entries: paper PMC6855808

Target: ELIC R301Q/R299Q (Dickeya chrysanthemi, UniProt P0C7B7, R298Q/R300Q)
Construct: MBP (N, cleaved yes)
Test: Excised patch-clamp recordings from giant liposomes
Conditions: 25 mole% POPG; read-out: Cysteamine response EC50
quantity: EC50

Find the measured EC50 of NCCS [cysteamine] and report it. 3.9 mM

----------
Target: ELIC R123Q (Dickeya chrysanthemi, UniProt P0C7B7, INS163G/R123Q)
Construct: MBP (N, cleaved yes)
Experiment: Excised patch-clamp recordings from giant liposomes
Conditions: 25 mole% POPG; read-out: Cysteamine response EC50
quantity: pEC50
Note on units: pEC50 is unitless, being -log10 of a concentration expressed in mol/L.

Retrieve pEC50 on ELIC R123Q (Dickeya chrysanthemi, UniProt P0C7B7, INS163G/R123Q); query NCCS [cysteamine] 2.43
